system: Sodium- and chloride-dependent betaine transporter (Mus musculus); experiment: Inhibition of mouse GAT2 expressed in HEK293 cells assessed as remaining [3H]GABA uptake at 100 uM preincubated for 25 mins followed by [3H]GABA addition and measured after 10 mins by liquid scintillation counting method relative to control
activity at 100 µM for assorted molecules
Metric Name: activity at 100 µM (%)

COc1ccc(C(/C=C\CN2CCCC(C(=O)O)C2)c2ccc(OC)cc2)cc1 (racemic); 68
COc1ccc(C(/C=C\CCN2CCCC(C(=O)O)C2)(c2ccc(OC)cc2)c2ccc(OC)cc2)cc1 (racemic); 63
O=C(O)C1CCCN(C/C=C\CC(c2ccccc2)(c2ccccc2)c2ccccc2)C1 (racemic); 70
COc1ccc(C(/C=C\CN2CCCC(C(=O)O)C2)(c2ccc(OC)cc2)c2nccs2)cc1 (racemic); 67
COc1ccc(CC(/C=C\CN2CCCC(C(=O)O)C2)(c2ccc(OC)cc2)c2ccc(OC)cc2)cc1 (racemic); 65
